The following compounds are listed with their measured IC50 values.
PROCEDURE SUMMARY: cells
Format: functional, cell-based
CONDITION INFO: Homo sapiens, KM3, 48 h
Description: Antiproliferative activity against human KM3 cells assessed as inhibition of cell growth incubated for 48 hrs by CCK-8 assay
Please answer using the number first and the unit second.

Sample records with IC50:
• COc1ccc(COc2cccc3ccc(C(=O)NCc4ccc(C(=O)NO)cc4)nc23)cc1 = 1460 nM
• O=C(NO)c1ccc(CNC(=O)c2ccc3cccc(OCc4ccc(F)cc4)c3n2)cc1 = 2830 nM
• COc1cccc2ccc(C(=O)NCc3ccc(C(=O)NO)cc3)nc12 = 500 nM

Field: next compound
IC50 reading for Cc1ccc(COc2cccc3ccc(C(=O)NCc4ccc(C(=O)NO)cc4)nc23)cc1 : 1670 nM

----------
TARGET SYSTEM: UniProtKB Q9UBN7
Sequence (Q9UBN7 whole entry): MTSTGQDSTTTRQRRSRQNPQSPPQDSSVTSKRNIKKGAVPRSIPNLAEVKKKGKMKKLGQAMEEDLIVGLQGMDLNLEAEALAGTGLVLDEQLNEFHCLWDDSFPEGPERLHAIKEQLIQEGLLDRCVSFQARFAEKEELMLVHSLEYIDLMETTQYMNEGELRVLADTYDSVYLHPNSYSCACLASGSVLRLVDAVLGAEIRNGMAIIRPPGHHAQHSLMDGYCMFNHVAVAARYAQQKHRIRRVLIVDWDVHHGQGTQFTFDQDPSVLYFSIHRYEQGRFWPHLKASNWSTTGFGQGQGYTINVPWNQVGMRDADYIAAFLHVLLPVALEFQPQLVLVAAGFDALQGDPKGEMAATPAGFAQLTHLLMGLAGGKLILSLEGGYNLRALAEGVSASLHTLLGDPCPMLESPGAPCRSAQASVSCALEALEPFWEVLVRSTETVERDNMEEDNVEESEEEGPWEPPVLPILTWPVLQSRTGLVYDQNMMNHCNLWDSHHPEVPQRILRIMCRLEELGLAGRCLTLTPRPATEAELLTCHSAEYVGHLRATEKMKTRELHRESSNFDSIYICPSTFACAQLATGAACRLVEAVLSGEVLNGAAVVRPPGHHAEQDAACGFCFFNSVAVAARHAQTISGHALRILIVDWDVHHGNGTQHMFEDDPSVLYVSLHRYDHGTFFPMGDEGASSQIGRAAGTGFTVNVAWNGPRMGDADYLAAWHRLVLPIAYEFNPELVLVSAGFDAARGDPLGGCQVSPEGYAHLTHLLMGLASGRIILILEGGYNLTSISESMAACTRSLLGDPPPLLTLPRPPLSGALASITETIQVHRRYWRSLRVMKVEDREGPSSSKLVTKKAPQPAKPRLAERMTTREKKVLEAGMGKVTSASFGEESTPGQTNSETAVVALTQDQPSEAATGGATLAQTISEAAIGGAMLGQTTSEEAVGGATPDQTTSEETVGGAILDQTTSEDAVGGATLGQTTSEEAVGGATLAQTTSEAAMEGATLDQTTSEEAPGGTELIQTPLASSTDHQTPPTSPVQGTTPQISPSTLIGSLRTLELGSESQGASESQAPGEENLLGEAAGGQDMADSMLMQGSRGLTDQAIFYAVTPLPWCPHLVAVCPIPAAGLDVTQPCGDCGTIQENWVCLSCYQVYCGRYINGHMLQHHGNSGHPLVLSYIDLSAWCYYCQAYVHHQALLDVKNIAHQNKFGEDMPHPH
VALUE KIND: IC50 (nM)
Respond with the bare value in nM.

IC50 reading for Cc1ccc(COc2cccc3ccc(C(=O)NCc4ccc(C(=O)NO)cc4)nc23)cc1 : 101

----------
TARGET SYSTEM: Histone deacetylase
PROCEDURE SUMMARY: Inhibition of HDAC in human HeLa nuclear extract using Boc-Lys(Ac)-AMC or Boc-Lys(Tfa)-AMC as substrate preincubated for 5 mins followed by substrate addition and measured after 30 mins by fluorescence assay
Assay type: subcellular, Nucleus
Output True for records whose IC50 is lower than 60 nM, False for records at or above 60 nM.

Here's what some known entries look like.
• COc1cccc2ccc(C(=O)NCc3ccc(C(=O)NO)cc3)nc12 = True
• O=C(NO)c1ccc(CNC(=O)c2ccc3cccc(OCc4ccccc4)c3n2)cc1 = False

Then there is this compound:
Query :: Does the reported IC50 of the following compound sit strictly below 60 nM? Cc1ccc(COc2cccc3ccc(C(=O)NCc4ccc(C(=O)NO)cc4)nc23)cc1
Result :: True

----------
So I've got pIC50 readings for UniProt:Q13547, take a look.
Sequence (Q13547 whole entry): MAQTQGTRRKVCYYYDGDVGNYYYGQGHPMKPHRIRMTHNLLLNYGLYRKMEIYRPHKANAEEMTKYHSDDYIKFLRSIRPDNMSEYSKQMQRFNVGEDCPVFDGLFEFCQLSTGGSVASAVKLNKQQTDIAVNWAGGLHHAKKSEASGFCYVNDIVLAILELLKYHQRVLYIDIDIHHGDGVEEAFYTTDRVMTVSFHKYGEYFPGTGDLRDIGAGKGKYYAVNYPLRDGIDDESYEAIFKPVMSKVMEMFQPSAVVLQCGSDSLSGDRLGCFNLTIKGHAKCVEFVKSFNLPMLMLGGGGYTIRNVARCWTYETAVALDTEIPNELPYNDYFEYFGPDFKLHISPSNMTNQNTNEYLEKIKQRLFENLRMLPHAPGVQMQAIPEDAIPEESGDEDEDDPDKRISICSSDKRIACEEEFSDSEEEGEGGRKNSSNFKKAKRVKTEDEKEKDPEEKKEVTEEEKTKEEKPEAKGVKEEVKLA
Schema: pIC50 number; meaning minus log10 of the concentration expressed in molar units.

- O=C(NO)c1ccc(CNC(=O)c2ccc3cccc(OCc4ccc(F)cc4)c3n2)cc1: 7.15

Field: next compound
Case Cc1ccc(COc2cccc3ccc(C(=O)NCc4ccc(C(=O)NO)cc4)nc23)cc1 , UniProt:Q13547, pIC50 recorded as 6.88

----------
PROCEDURE SUMMARY: in vitro
CONDITION INFO: human, HUVEC cells
Description: Cytotoxicity against HUVEC cells assessed as inhibition of cell growth incubated for 48 hrs by CCK-8 assay
VALUE KIND: IC50 at 48 h

- O=C(NO)c1ccc(CNC(=O)c2ccc3cccc(OCc4ccc(F)cc4)c3n2)cc1: > 50 µM
- Cc1ccc(COc2cccc3ccc(C(=O)NCc4ccc(C(=O)NO)cc4)nc23)cc1: > 50 µM
- COc1ccc(COc2cccc3ccc(C(=O)NCc4ccc(C(=O)NO)cc4)nc23)cc1: > 50 µM

Field: next compound
IC50 at 48 h reading for COc1cccc2ccc(C(=O)NCc3ccc(C(=O)NO)cc3)nc12 : > 50 µM

----------
TARGET SYSTEM: Histone deacetylase 8 (Homo sapiens, UniProt Q9BY41)
Sequence (Q9BY41 whole entry): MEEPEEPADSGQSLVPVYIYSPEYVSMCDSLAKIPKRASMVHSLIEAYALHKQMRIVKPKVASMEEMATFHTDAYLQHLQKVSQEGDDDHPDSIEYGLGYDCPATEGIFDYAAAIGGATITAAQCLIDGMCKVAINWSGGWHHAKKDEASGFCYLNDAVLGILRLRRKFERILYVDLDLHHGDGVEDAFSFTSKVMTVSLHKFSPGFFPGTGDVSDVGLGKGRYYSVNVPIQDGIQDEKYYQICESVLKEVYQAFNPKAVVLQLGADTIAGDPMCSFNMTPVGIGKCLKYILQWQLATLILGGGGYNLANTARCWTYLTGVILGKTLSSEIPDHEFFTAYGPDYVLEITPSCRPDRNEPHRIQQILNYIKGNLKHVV
PROCEDURE SUMMARY: Inhibition of HDAC8 (unknown origin) using Boc-Lys(Ac)-AMC or Boc-Lys(Tfa)-AMC as substrate preincubated for 5 mins followed by substrate addition and measured after 1 hr by fluorescence assay
VALUE KIND: IC50

IC50 reading for O=C(NO)c1ccc(CNC(=O)c2ccc3cccc(OCc4ccc(F)cc4)c3n2)cc1 : > 10 µM

----------
TARGET SYSTEM: Histone deacetylase
PROCEDURE SUMMARY: Inhibition of HDAC in human HeLa nuclear extract using Boc-Lys(Ac)-AMC or Boc-Lys(Tfa)-AMC as substrate preincubated for 5 mins followed by substrate addition and measured after 30 mins by fluorescence assay
Assay type: subcellular, Nucleus
The following compounds are listed with their measured IC50 values.
Respond with the bare value in nM.

Case CC(C)(C)c1ccc(COc2cccc3ccc(C(=O)NCCCCCC(=O)NO)nc23)cc1 , Histone deacetylase, IC50 recorded as 187

Case O=C(CCCCCNC(=O)c1ccc2cccc(OCc3ccc(Br)cc3)c2n1)NO , Histone deacetylase, IC50 recorded as 168

----------
TARGET SYSTEM: Histone deacetylase
PROCEDURE SUMMARY: Inhibition of HDAC in human HeLa nuclear extract using Boc-Lys(Ac)-AMC or Boc-Lys(Tfa)-AMC as substrate preincubated for 5 mins followed by substrate addition and measured after 30 mins by fluorescence assay
Assay type: subcellular, Nucleus
The following molecules are listed with their measured IC50 values.
Respond with the bare value in nM.

Sample records with IC50:
• COc1ccc(COc2cccc3ccc(C(=O)NCCCCCC(=O)NO)nc23)cc1 = 127
• O=C(NO)c1ccc(CNC(=O)c2ccc3cccc(OCc4ccc(F)cc4)c3n2)cc1 = 33
• COc1ccc(COc2cccc3ccc(C(=O)NCc4ccc(C(=O)NO)cc4)nc23)cc1 = 41
• O=C(CCCCCNC(=O)c1ccc2cccc(OCc3ccccc3)c2n1)NO = 168

Field: next molecule
IC50 reading for O=C(NO)c1ccc(CNC(=O)c2ccc3cccc(OCc4ccc(Br)cc4)c3n2)cc1 : 54

Entry source: ChEMBL document CHEMBL5257099
